Cited source: paper PMC8510090

- assayedTarget: T1, GapRΔC17 (Caulobacter crescentus, UniProt B8H4R9 1-72)
- T1 sequence: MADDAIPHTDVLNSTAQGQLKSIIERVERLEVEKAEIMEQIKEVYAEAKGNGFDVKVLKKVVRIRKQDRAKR
- methodDescription: MST; MST: 20 mM PBS, 150 mM NaCl, 0.02% n-dodecyl-β-D-maltoside, pH 7, 20 nM labeled dimer (labeling at room temperature); NMR netropsin competition: 50 mM sodium phosphate, 150 mM NaCl, pH 7.0, 90% H2O/5% D2O (so in the source)
- statedConditions: protein: recombinant; tags: C-terminal His6; chain copies: 2; blunt
observable: Kd (nM)
Answers are plain numbers, in nM.

Exercise: I'd like to know its Kd. The binder in question is 6A DNA (dsDNA) DNA 1: CGCAAAAAAGCG DNA 2: CGCTTTTTTGCG
Key: 1100
